Task for the reader: assign each of the following compounds its reported fold induction at 0.125 µM.
System: DeaD strain BB579
methodDescription: yeast Death of Daughters (DeaD) lifespan assay, reversal of nicotinamide (NAM) lifespan shortening
Type: cell-based, S. cerevisiae (yeast)
measurementConditions: Saccharomyces cerevisiae, BB579; fold improvement in DeaD lifespan, 0.75 mM NAM, compound 125 nM

[ask] // query fold induction at 0.125 µM value for entry CCC(=O)C1C(=O)CC(c2ccco2)CC1=O (stereo not shown) [compound 22791]
[reply] 1.77

[ask] // lookup fold induction at 0.125 µM for CCC(=O)C1C(=O)CC(C(C)C)CC1=O (stereo not shown) [compound 22932]
[reply] 1.76

[ask] For the compound shown here, CCC(=O)C1C(=O)CC(C2CCCCC2)CC1=O (stereo not shown) [compound 22788] , give the reported fold induction at 0.125 µM.
[reply] 3.4

[ask] Give its fold induction at 0.125 µM value. Item: CC(=O)C1C(=O)CC(c2c(F)cccc2Cl)CC1=O (stereo not shown) [compound 22847]
[reply] 3.25

* * *

Test system: DeaD strain BB579
methodDescription: yeast Death of Daughters (DeaD) lifespan assay, reversal of nicotinamide (NAM) lifespan shortening
Assay type: cell-based, S. cerevisiae (yeast)
measurementConditions: Saccharomyces cerevisiae, BB579; fold improvement in DeaD lifespan, 0.75 mM NAM, compound 125 nM
observationType: fold induction at 0.125 µM
Keep the answer to the number alone.

[ask] What fold induction at 0.125 µM appears in the records for this molecule with DeaD strain BB579? CC(=O)C1C(=O)CC(c2cccs2)CC1=O (centres unmarked) [compound 22933]
[reply] 2.71

[ask] Give the reported fold induction at 0.125 µM for O=C1CC(c2cccs2)CC(=O)C1C(=O)C1CC1 (centres unmarked) [compound 22897] (system: DeaD strain BB579).
[reply] 1.25

[ask] Query fold induction at 0.125 µM on DeaD strain BB579 for CC(C)C(=O)C1C(=O)CC(c2ccccc2)CC1=O (centres unmarked) [compound 22880]
[reply] 1.49

[ask] For DeaD strain BB579, provide fold induction at 0.125 µM of CCC(=O)C1C(=O)CC(c2ccc(F)cc2)CC1=O (centres unmarked) [compound 22790] please.
[reply] 2.85

[ask] Request body: readout fold induction at 0.125 µM, system DeaD strain BB579, query O=C1CC(c2ccccc2)CC(=O)C1C(=O)C1CC1 (centres unmarked) [compound 22878] . Return the value.
[reply] 2.62

[ask] Lab note: need fold induction at 0.125 µM for CCC(=O)C1C(=O)CC(c2cccs2)CC1=O (centres unmarked) [compound 22930] on DeaD strain BB579, anyone have it?
[reply] 2.21

[ask] Enter reported fold induction at 0.125 µM observed with DeaD strain BB579 for CCCCCC1CC(=O)C(C(=O)CC)C(=O)C1 (centres unmarked) [compound 22945]
[reply] 1.96

[ask] Request: fold induction at 0.125 µM, test system DeaD strain BB579, entry CCCCCCC1CC(=O)C(C(C)=O)C(=O)C1 (centres unmarked) [compound 22926]
[reply] 0.99

[ask] I'm curious: which fold induction at 0.125 µM was measured for CCCCC1CC(=O)C(C(=O)CC)C(=O)C1 (centres unmarked) [compound 22943] tested on DeaD strain BB579?
[reply] 2.79

[ask] What measured fold induction at 0.125 µM is associated with Cc1ccc(C2CC(=O)C(C(=O)C3CC3)C(=O)C2)cc1 (centres unmarked) [compound 22824] on DeaD strain BB579?
[reply] 1.32

[ask] What fold induction at 0.125 µM appears in the records for this molecule with DeaD strain BB579? CCC(=O)C1C(=O)CC(C2CC3C=CC2C3)CC1=O (centres unmarked) [compound 22965]
[reply] 3.65

[ask] Form entry - test system: DeaD strain BB579; read-out: fold induction at 0.125 µM; molecule: CC(=O)C1C(=O)CC(c2ccc(Cl)cc2Cl)CC1=O (centres unmarked) [compound 22840]
[reply] 2.24

[ask] Form field: fold induction at 0.125 µM recorded for CC(=O)C1C(=O)CC(C(C)C)CC1=O (centres unmarked) [compound 22931] with DeaD strain BB579 (enter value)
[reply] 1.86

[ask] Short answer please: fold induction at 0.125 µM, DeaD strain BB579, entry O=C1CC(c2ccc(F)cc2)CC(=O)C1C(=O)C1CC1 (centres unmarked) [compound 22835]
[reply] 2.48

[ask] Notebook entry, DeaD strain BB579 assay: fold induction at 0.125 µM of COc1cc(OC)c(C2CC(=O)C(C(=O)C3CC3)C(=O)C2)c(OC)c1 (centres unmarked) [compound 22821] = ?
[reply] 1.27

[ask] Give the reported fold induction at 0.125 µM for CCCCC1CC(=O)C(C(C)=O)C(=O)C1 (centres unmarked) [compound 22942] (system: DeaD strain BB579).
[reply] 2.87

[ask] Query the reported fold induction at 0.125 µM for DeaD strain BB579; item: CCC(=O)C1C(=O)CC(c2c(F)cccc2Cl)CC1=O (centres unmarked) [compound 22789]
[reply] 2.61

[ask] DeaD strain BB579 / fold induction at 0.125 µM / CCCCCC1CC(=O)C(C(C)=O)C(=O)C1 (centres unmarked) [compound 22944] : value?
[reply] 2.72

[ask] Form field: fold induction at 0.125 µM recorded for CC(=O)C1C(=O)CC(C2CC3C=CC2C3)CC1=O (centres unmarked) [compound 22856] with DeaD strain BB579 (enter value)
[reply] 3.18

[ask] What reported fold induction at 0.125 µM corresponds to O=C1CC(C2CCCCC2)CC(=O)C1C(=O)c1ccccc1 (centres unmarked) [compound 22845] on DeaD strain BB579?
[reply] 1.99
